Data origin, for the record: patent US20160122389A1

target: CXC chemokine receptor 4 (CXCR4) (human, UniProt P61073 1-352); assay: cell-based or functional assay
Sequence (P61073 whole entry): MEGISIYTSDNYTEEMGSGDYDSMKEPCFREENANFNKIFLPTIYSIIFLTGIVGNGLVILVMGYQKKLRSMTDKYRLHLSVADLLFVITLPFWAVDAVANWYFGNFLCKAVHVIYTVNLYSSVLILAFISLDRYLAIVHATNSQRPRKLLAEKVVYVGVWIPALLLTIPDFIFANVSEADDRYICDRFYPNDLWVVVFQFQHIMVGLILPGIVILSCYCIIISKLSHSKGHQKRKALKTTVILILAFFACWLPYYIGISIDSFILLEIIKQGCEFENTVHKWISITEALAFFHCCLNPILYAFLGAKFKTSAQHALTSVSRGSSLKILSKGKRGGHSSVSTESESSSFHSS
No end group written: not given here.
Checkbox rule: IC50 (µM), blocking of X4 tropic HIV-1 NL4-3 infection lower than 2 µM = condition met; IC50 (µM), blocking of X4 tropic HIV-1 NL4-3 infection not lower than 2 µM = condition not met.

1. IVRWCKKVPQVS [408I-419 WC03] ... condition met
2. LVRYTKKVPQVSTPT [408-422] ... condition not met
3. IVKYTKKVPQVS [408I-419 R410K] ... condition not met
4. IVRWSKKVPQCS (also: homodimer, disulfide between Cys of the two monomers) [408I-419 WSC01 x2] ... condition met
5. IVRYTKKVPQCS [408I-419 V418C] ... condition not met

Q) I'd appreciate it if you could check whether IVRYTKCVPQVS (also: homodimer, disulfide between Cys of the two monomers) [408I-419 K414C x2] has IC50 (µM), blocking of X4 tropic HIV-1 NL4-3 infection smaller than 2 µM.
A) condition met

Q) I'd appreciate it if you could check whether LVRYTKKVPQVSTP [408-421] has IC50 (µM), blocking of X4 tropic HIV-1 NL4-3 infection smaller than 2 µM.
A) condition not met

Q) I'd appreciate it if you could check whether LVRYTKKVPQVS [408-419] has IC50 (µM), blocking of X4 tropic HIV-1 NL4-3 infection smaller than 2 µM.
A) condition not met

Q) I'd appreciate it if you could check whether LVRYTKKVPQ [408-417] has IC50 (µM), blocking of X4 tropic HIV-1 NL4-3 infection smaller than 2 µM.
A) condition not met

Q) I'd appreciate it if you could check whether IVRWTCKVPQVS [408I-419 WC02] has IC50 (µM), blocking of X4 tropic HIV-1 NL4-3 infection smaller than 2 µM.
A) condition not met

Q) I'd appreciate it if you could check whether IVRWTKKVPQVC [408I-419 WC01] has IC50 (µM), blocking of X4 tropic HIV-1 NL4-3 infection smaller than 2 µM.
A) condition met

Q) I'd appreciate it if you could check whether IVRWTKKVPQVS [408I-419 Y411W] has IC50 (µM), blocking of X4 tropic HIV-1 NL4-3 infection smaller than 2 µM.
A) condition met

Q) I'd appreciate it if you could check whether LVRYAKKV [408-415-T412A] has IC50 (µM), blocking of X4 tropic HIV-1 NL4-3 infection smaller than 2 µM.
A) condition not met

Q) I'd appreciate it if you could check whether IVRWSKKVPCVS (also: homodimer, disulfide between Cys10 of two monomers) [408I-419 WSC02 x2] has IC50 (µM), blocking of X4 tropic HIV-1 NL4-3 infection smaller than 2 µM.
A) condition met

Q) I'd appreciate it if you could check whether IVRYSKKVPQVS [408I-419 T412S] has IC50 (µM), blocking of X4 tropic HIV-1 NL4-3 infection smaller than 2 µM.
A) condition not met

Q) I'd appreciate it if you could check whether LVRYTKKV [408-415] has IC50 (µM), blocking of X4 tropic HIV-1 NL4-3 infection smaller than 2 µM.
A) condition not met

Q) I'd appreciate it if you could check whether LVRYTKKVPQVSTPTL (Chemically synthesized fragment of human serum albumin (HSA)) [peptide of SEQ ID NO 16 (408-423)] has IC50 (µM), blocking of X4 tropic HIV-1 NL4-3 infection smaller than 2 µM.
A) condition not met
